# System: Ipomoea hederacea (IPOHE)
# test-description: B1 Post-emergence efficacy, glasshouse pot test
# Type: in vivo
# experimental-conditions: post-emergence application, 1000 g/ha, evaluated after 13 days
Each item that follows carries a reported IPOHE: percentage damage caused to the plant (five point scale).

Solved cases below.
Cn1nc([S+](C)[O-])c(O)c(-c2c(Cl)ccc(Cl)c2OCc2ccccc2)c1=O (centres unmarked)
5 (5=80-100%)
Cc1nn(C)c(=O)c(-c2c(F)ccc(Cl)c2OCc2ccccc2)c1O
5 (5=80-100%)

Q: Write down IPOHE: percentage damage caused to the plant (five point scale) measured for item "Cn1nc(C2CC2)c(O)c(-c2c(F)ccc(Cl)c2OCc2ccccc2)c1=O"
Result: 5 (5=80-100%)

Q: Write down IPOHE: percentage damage caused to the plant (five point scale) measured for item "Cn1nc(N)c(O)c(-c2c(Cl)ccc(Cl)c2OCc2ccccc2)c1=O"
Result: 4 (4=60-79%)

----------
# System: Amaranthus retoflexus (AMARE)
# test-description: B1 Post-emergence efficacy, glasshouse pot test
# Assay type: in vivo
# experimental-conditions: post-emergence application, 1000 g/ha, evaluated after 13 days
experimental-endpoint: AMARE: percentage damage caused to the plant (five point scale)

Solved cases below.
Cc1nn(C)c(=O)c(-c2c(Cl)cccc2OCc2ccccc2)c1O [Compound 1.068]
3 (3=40-59%)
Cn1nc(N)c(O)c(-c2c(Cl)ccc(Cl)c2OCc2ccccc2)c1=O [Compound 1.081]
3 (3=40-59%)
Cn1nc(C(F)(F)F)c(O)c(-c2c(C(F)(F)F)ccc(Cl)c2OCc2ccccc2)c1=O [Compound 1.071]
3 (3=40-59%)
Cc1nn(C)c(=O)c(-c2c(Cl)cc(Cl)cc2OCc2ccccc2)c1O [Compound 1.006]
5 (5=80-100%)
CN(C)c1nn(C)c(=O)c(-c2c(F)ccc(Cl)c2OCc2ccccc2)c1O [Compound 1.085]
5 (5=80-100%)
Cc1nn(C)c(=O)c(-c2c(Cl)ccc(F)c2OCc2ccccc2)c1O [Compound 1.014]
4 (4=60-79%)
CCn1nc(C)c(O)c(-c2c(F)ccc(Cl)c2OCc2ccccc2)c1=O [Compound 1.037]
5 (5=80-100%)

Query compound follows.
Q: Look up and report measured AMARE: percentage damage caused to the plant (five point scale) (Amaranthus retoflexus (AMARE)) for the following compound: CCc1nn(C)c(=O)c(-c2c(F)ccc(Cl)c2OCc2ccccc2)c1O [Compound 1.010]
Result: 5 (5=80-100%)

----------
# Tested on: Ipomoea hederacea (IPOHE)
# test-description: B1 Post-emergence efficacy, glasshouse pot test
# Type: in vivo
# experimental-conditions: post-emergence application, 1000 g/ha, evaluated after 13 days
experimental-endpoint: IPOHE: percentage damage caused to the plant (five point scale)

Solved cases below.
Cc1nn(C)c(=O)c(-c2ccccc2OCc2ccccc2)c1O
1 (1=0-19%)
Cc1ccc(Cl)c(OCc2ccccc2)c1-c1c(O)c(C)nn(C)c1=O
5 (5=80-100%)
CCc1nn(C)c(=O)c(-c2c(Cl)ccc(Cl)c2OCc2ccccc2)c1O
5 (5=80-100%)
Cc1nn(C)c(=O)c(-c2c(Cl)cc(Cl)cc2OCc2ccccc2)c1O
5 (5=80-100%)

Q: Look up and report measured IPOHE: percentage damage caused to the plant (five point scale) (Ipomoea hederacea (IPOHE)) for the following compound: "Cc1nn(C)c(=O)c(-c2c(Cl)cccc2OCc2ccccc2)c1O"
Result: 4 (4=60-79%)

Q: Look up and report measured IPOHE: percentage damage caused to the plant (five point scale) (Ipomoea hederacea (IPOHE)) for the following compound: Cn1nc([S+](C)[O-])c(O)c(-c2c(F)ccc(Cl)c2OCc2ccccc2)c1=O (centres unmarked)
Result: 5 (5=80-100%)

Q: Look up and report measured IPOHE: percentage damage caused to the plant (five point scale) (Ipomoea hederacea (IPOHE)) for the following compound: "Cc1nn(C)c(=O)c(-c2cccc(Cl)c2OCc2ccccc2)c1O"
Result: 5 (5=80-100%)

Q: Look up and report measured IPOHE: percentage damage caused to the plant (five point scale) (Ipomoea hederacea (IPOHE)) for the following compound: "Cn1nc(C(F)(F)F)c(O)c(-c2c(F)ccc(Cl)c2OCc2ccccc2)c1=O"
Result: 5 (5=80-100%)

Q: Look up and report measured IPOHE: percentage damage caused to the plant (five point scale) (Ipomoea hederacea (IPOHE)) for the following compound: "Cc1nn(C2CC2)c(=O)c(-c2c(F)ccc(Cl)c2OCc2ccccc2)c1O"
Result: 5 (5=80-100%)

Q: Look up and report measured IPOHE: percentage damage caused to the plant (five point scale) (Ipomoea hederacea (IPOHE)) for the following compound: "CN(C)c1nn(C)c(=O)c(-c2c(F)ccc(Cl)c2OCc2ccccc2)c1O"
Result: 5 (5=80-100%)

Q: Look up and report measured IPOHE: percentage damage caused to the plant (five point scale) (Ipomoea hederacea (IPOHE)) for the following compound: "Cn1nc(S(C)(=O)=O)c(O)c(-c2c(Cl)ccc(Cl)c2OCc2ccccc2)c1=O"
Result: 3 (3=40-59%)
